assay.system: Phosphodiesterase 4 (Homo sapiens, UniProt P27815+Q08499+Q07343+Q08493)
assay.method.text: Inhibition of human PDE4
Assay type: protein assay
quantity: IC50
Output should be the measured figure followed by the unit it is expressed in.

CCOc1cc(C(CS(C)(=O)=O)N2C(=O)c3cccc(O)c3C2=O)ccc1OC (racemic) : 820 nM

## Task What IC50 value was documented for this compound, COc1ccc(C(CS(C)(=O)=O)N2C(=O)c3ccccc3C2=O)cc1OC1CCCC1 (centres undefined) ?
## Result 260 nM

## Task What IC50 value was documented for this compound, CCOc1cc(C(CS(C)(=O)=O)N2C(=O)c3cccc(N(C)C)c3C2=O)ccc1OC (racemic) ?
## Result 120 nM

## Task What IC50 value was documented for this compound, `CCOc1cc([C@@H](CC(N)=O)N2C(=O)c3cccc(NC(C)=O)c3C2=O)ccc1OC` ?
## Result 710 nM

## Task What IC50 value was documented for this compound, COc1ccc(C(CC(=O)O)N2C(=O)c3ccccc3C2=O)cc1OC1CCCC1 (centres undefined) ?
## Result 340 nM

## Task What IC50 value was documented for this compound, CCOc1cc(C(CC(=O)OC)N2C(=O)c3ccccc3C2=O)ccc1OC (centres undefined) ?
## Result 220 nM

## Task What IC50 value was documented for this compound, CCOc1cc(C(CC#N)N2C(=O)c3cccc(NC(C)=O)c3C2=O)ccc1OC (racemic) ?
## Result 130 nM

## Task What IC50 value was documented for this compound, COc1ccc(C(CC#N)N2C(=O)c3ccccc3C2=O)cc1OC1CCCC1 (centres undefined) ?
## Result 340 nM

## Task What IC50 value was documented for this compound, CCOc1cc(C(CS(C)(=O)=O)N2C(=O)c3ccccc3C2=O)ccc1OC (centres undefined) ?
## Result 220 nM

###

assay.method.text: Half life in rat at 10 mg/kg, po
Format: ADME, organism-based
Parameters: dose 10 mg/kg, route oral
conditions.used: in vivo
quantity: half-life (h)
Write it as a number; the unit h goes unstated.

## Task What half-life value was documented for this molecule, `CCOc1cc([C@@H](CS(C)(=O)=O)N2C(=O)c3cccc(NC(C)=O)c3C2=O)ccc1OC` ?
## Result 5

###

assay.system: Cytochrome P450 2D6 (Homo sapiens, UniProt P10635)
Sequence (P10635 whole entry): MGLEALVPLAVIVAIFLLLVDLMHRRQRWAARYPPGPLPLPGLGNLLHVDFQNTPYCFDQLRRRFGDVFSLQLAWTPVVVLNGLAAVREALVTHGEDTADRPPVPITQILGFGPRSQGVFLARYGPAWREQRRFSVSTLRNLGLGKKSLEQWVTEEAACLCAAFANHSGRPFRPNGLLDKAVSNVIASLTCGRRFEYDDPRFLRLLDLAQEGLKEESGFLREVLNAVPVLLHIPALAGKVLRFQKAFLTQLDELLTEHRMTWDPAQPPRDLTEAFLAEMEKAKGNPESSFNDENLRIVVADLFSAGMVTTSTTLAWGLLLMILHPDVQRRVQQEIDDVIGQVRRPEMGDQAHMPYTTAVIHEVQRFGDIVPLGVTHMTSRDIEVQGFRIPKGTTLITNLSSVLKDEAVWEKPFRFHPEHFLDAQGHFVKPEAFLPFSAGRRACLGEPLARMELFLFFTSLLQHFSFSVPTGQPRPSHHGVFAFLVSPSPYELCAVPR
quantity: IC50

## Task State its IC50 on Cytochrome P450 2D6 (Homo sapiens, UniProt P10635): `CCOc1cc([C@@H](CS(C)(=O)=O)N2C(=O)c3cccc(NC(C)=O)c3C2=O)ccc1OC`
## Result > 10 µM

###

assay.system: Phosphodiesterase 4 (Homo sapiens, UniProt P27815+Q08499+Q07343+Q08493)
assay.method.text: Inhibition of human PDE4
Assay type: protein assay
quantity: IC50

## Task State its IC50 on Phosphodiesterase 4 (Homo sapiens, UniProt P27815+Q08499+Q07343+Q08493): CCOc1cc(C(CS(C)(=O)=O)N2C(=O)c3cccc(N)c3C2=O)ccc1OC (racemic)
## Result 120 nM

###

assay.method.text: Metabolic stability in human microsomes assessed as half life
Assay type: ADME, Microsome
quantity: half-life

## Task What half-life value was documented for this compound, `CCOc1cc([C@@H](CS(C)(=O)=O)N2C(=O)c3cccc(NC(C)=O)c3C2=O)ccc1OC` ?
## Result > 1 h
